- TEST_DETAILS: qHTS Assay for Rab9 Promoter Activators; also: nearly all actives have a fitted effect of over 60% in size
- MEASUREMENT_CONTEXT: Huh7 Rab9 promoter-luciferase reporter, luminescence, 24 h; series mostly up to 9.22 µM
Hit rate of the full screen: of about 320,000 compounds, about 9,100 (2.8%) were called active. About 3% were inconclusive and are not listed. Calls follow the shape of the dose curve; as a rule, active = well fitted activation curve with a large enough effect; inconclusive = small, poorly fitted or top-dose-only effect; inactive = no such curve, though single readings can be large or run the other way. Shown is part of a subset that was picked to be rich in actives.
Result category, one only: active, inactive

Illustrative cases are given below, each with its answer.
STRUCTURE_STRING	CAT
CCCc1cc(C(=O)Nc2ccc(Cl)cn2)cs1	active
COc1cc(OC)cc(C(=O)NCC(=O)N2CCCCCCC2)c1	inactive
Cc1ccc(NC(=O)CCC(=O)N2CCC(c3ccccc3)=N2)cc1S(=O)(=O)N1CCCCC1	inactive
Cc1cccc(C)c1NC(=O)CNC(=O)c1ccc2c(c1)OCCO2	inactive
c1ccc(CN=C2Nc3ccccc3CS2)nc1	active

Outcome? `COc1ccc(/C=N/NC(=O)c2ccc3c(c2)OCCO3)c(OC)c1`
inactive
